assay: recombinant barcode read abundance after kanamycin selection (control-corrected) (log10(CPM+1)); higher = more efficient recombination; sequences stand for … in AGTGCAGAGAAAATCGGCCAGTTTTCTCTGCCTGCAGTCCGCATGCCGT…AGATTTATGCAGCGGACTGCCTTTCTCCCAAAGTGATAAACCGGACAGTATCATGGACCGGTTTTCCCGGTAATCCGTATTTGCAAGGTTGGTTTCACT; site = the 11-nt target
metric name: recombinant barcode read abundance (log10)
A bare number is all that is needed in reply.

AGTCGACCTTGGGTTCTAACCTGTTGCCT (site GGTCGACCTAG) ... 0.112
ACGTCGTCTTGGGTTCTAACCTGTTGCCT (site AAGTCGTCTAG) ... 0.0262
AAGTCTCCTTGGGTTCTAACCTGTTGCAG (site GCAATATCTAG) ... 0.116
GTCCCTCCTTGGGTTCTAACCTGTTGCCT (site GTCCCTCCTAG) ... 0.709
TTAGAGTCTTGGGTTCTAACCTGTTGCCT (site TTAGAGTCTAG) ... 2.08

Note: attention shifts to another entry.
Task item: Query recombinant barcode read abundance (log10) for CTAGGCCCTTGGGTTCTAACCTGTTGCGT (site CTAGGCCCTAG)
Reply: 0.264

---

Catalogue of recombinant UMI read abundance (log10) readings, one per entry.
test: recombinant UMI read abundance after kanamycin selection (control-corrected) (log10(CPM+1)); higher = more efficient recombination; extreme values may be limits of the assay; sequences stand for … in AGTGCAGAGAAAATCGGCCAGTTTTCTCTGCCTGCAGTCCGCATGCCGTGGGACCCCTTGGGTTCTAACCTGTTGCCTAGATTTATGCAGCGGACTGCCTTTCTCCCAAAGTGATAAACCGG…AGGTTGGTTTCACT; site = the 11-nt donor

Here is how some sequences turned out for recombinant UMI read abundance (log10).
TGTACACCATGGACCGGTTTTCCCGGTAATCCGTATTTGGC (site TGTACACCTGC) ... 0.00484
CGCTAATCATGGACCGGTTTTCCCGGTAATCCGTATTTGCT (site CGATCATCTAG) ... 0
AACCGAGCATGGACCGGTTTTCCCGGTAATCCGTATTTGTT (site AACCGAGCTAA) ... 0.146
CCCAAATCATGGACCGGTTTTCCCGGTAATCCGTATTTGTC (site CCCATATCTGA) ... 0
AAGAAGACATGGACCGGTTTTCCCGGTAATCCGTATTTGCC (site AGGAAGACTTG) ... 0.0155

Task item: Tell me recombinant UMI read abundance (log10) reported for CGGACGTCATGGACCGGTTTTCCCGGTAATCCGTATTTGCT (site CGGACATCTAG)
Reply: 2.54

Task item: Provide one value: measured recombinant UMI read abundance (log10) of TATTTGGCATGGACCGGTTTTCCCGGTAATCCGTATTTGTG (site TATATGGCTCA)
Reply: 0.00476

Task item: Quickly give me recorded recombinant UMI read abundance (log10) for CGCAATCCATGGACCGGTTTTCCCGGTAATCCGTATTTGAG (site CGCAATCCTCT)
Reply: 0.964

Task item: Supply measured recombinant UMI read abundance (log10) of CCATACACATGGACCGGTTTTCCCGGTAATCCGTATTTGTT (site CCATACACTAA) in your reply.
Reply: 0.866

Task item: Output recombinant UMI read abundance (log10) of ATAGGTCCATGGACCGGTTTTCCCGGTAATCCGTATTTGTT (site ATAGGTCCTAA)
Reply: 0.95

Source listed as the supplement of paper PMC11208160.
